Could you please report measured solubility (g/100 g solution) for the items listed next?
assay: xn = mol fraction of the nth substance listed, in the solute-free solvent; conditions: 283.15 K; x2 = 0.1436

Here is how some compounds turned out for solubility (g/100 g solution).
CC(C)OC(=O)C(C)NP(=O)(OCC1OC(n2ccc(=O)[nH]c2=O)C(C)(F)C1O)Oc1ccccc1 (centres undefined) + CCO + O | 4.78
Nc1cccc(S(=O)(=O)c2cccc(N)c2)c1 + CCO + O | 0.209
Cc1[nH]c(=O)c(C#N)cc1-c1ccncc1 + CCO + O | 0.00138

Please examine the following record next.
-- ask Find the measured solubility (g/100 g solution) of COc1cc2c(cc1OC)-c1cc3ccc(OC)c(OC)c3c[n+]1CC2.[Cl-] + CCO + O and report it.
-- reply 1.34
